This collection of values is drawn from ChEMBL document CHEMBL1123616.

subject of test: Thromboxane-A synthase (Homo sapiens)
Sequence (P24557 whole entry): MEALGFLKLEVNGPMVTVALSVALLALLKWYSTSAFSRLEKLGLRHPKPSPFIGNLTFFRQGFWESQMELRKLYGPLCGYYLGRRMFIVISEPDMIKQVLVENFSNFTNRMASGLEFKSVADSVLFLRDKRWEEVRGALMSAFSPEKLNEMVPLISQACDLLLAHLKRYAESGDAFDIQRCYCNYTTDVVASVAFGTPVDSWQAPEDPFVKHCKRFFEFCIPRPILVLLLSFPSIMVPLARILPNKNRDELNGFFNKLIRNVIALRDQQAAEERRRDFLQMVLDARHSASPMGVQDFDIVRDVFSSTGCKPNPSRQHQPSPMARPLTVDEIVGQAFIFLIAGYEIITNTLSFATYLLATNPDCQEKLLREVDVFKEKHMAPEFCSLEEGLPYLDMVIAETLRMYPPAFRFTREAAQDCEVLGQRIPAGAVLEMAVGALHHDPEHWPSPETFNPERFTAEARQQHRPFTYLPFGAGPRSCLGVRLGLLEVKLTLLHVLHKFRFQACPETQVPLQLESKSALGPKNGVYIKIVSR
procedure text: Inhibition of Thromboxane B2 formation in collagen-stimulated human platelets in platelet rich plasma.
pIC50: −log10 of the molar value.
reported property: pIC50

compound: COc1ccc(COCC(Cn2ccnc2)OCCCCCC(=O)O)cc1 (stereo not drawn)
reported property: pIC50
modifier: =
endpoint value: 6.25

compound: COc1ccc(COCC(Cn2ccnc2)OCCCCCCC(C)(C)C(=O)O)cc1 (stereo not drawn)
reported property: pIC50
modifier: <
endpoint value: 4.70

compound: COc1ccc(COCC(Cn2ccnc2)OCCCCC(C)(C)C(=O)O)cc1 (racemic)
reported property: pIC50
modifier: =
endpoint value: 6.92
